- ASSAY_DETAILS: yeast display, Sf9 membrane polyspecificity reagent, FACS + sequencing; frameworks hold sequencing errors
MEASURED_PARAMETER: polyreactivity (PSR sort gate)

Before answering, review these 4 worked examples.
Incoming: Supply polyreactivity (PSR sort gate) value. Item: "QVQHVESGGGLVQARGSLRLSCAPSGFTFETNAMGWYRQAPGKEREFDAAISWTTTSTYFADSVKGRVTISRDNAKNTVYLQMNSLKPEDTAVYSCAVGLIREFGWDYDYWGQGTQVTVSS"
Outgoing: low polyreactivity

Incoming: Give the value of polyreactivity (PSR sort gate) reported for the following: "QVQLVESGGGLVQAGGSLRLSCAASGRIFGLNSLGWYRQAPGNEMELVAAIDIIGGSTYYADSVKGRFTISRDNAKNTVYLQMNSLKPEDTAVYYCAAEADFWRYVEYDYWGQGTQVTVSS"
Outgoing: low polyreactivity

Incoming: Answer with the recorded polyreactivity (PSR sort gate) of "QVQLVESGGGLVQAGGSLRLSCAASGSIFVVYAMGWYRPAHGKERELVAAIDSGGSTYYADSVKGRFTISRDNAKNTVYLQMNSMKTEDTAVYYCAADIYYYLWGLYYWGQGTQVTVSS" only.
Outgoing: low polyreactivity

Incoming: Give the reported polyreactivity (PSR sort gate) for this sequence. "QVQLVESVGGLVQAGVSLRLSSAASGSTLKQYAMGWFRQSPGKERELVGAITRSGSSTYYADSVKGRFTISRDNAKNTVYLPMNRLKREDTAVYYCDVGCWKGDYYWGLGTQVTVSS"
Outgoing: high polyreactivity

New cases:
Incoming: For the sequence "QVQLVESGGGLVQAGGSLRLSCDASGFTFYYYTMGWYRQAPGKERELVAAITWRGGSTNYADSVKGRFTISRDNAKNTVYVQMNSLKPEDTAVYYCAAVTYWFWPGMDYWGQGTQVTVSS" , give its reported polyreactivity (PSR sort gate).
Outgoing: low polyreactivity

Incoming: Return polyreactivity (PSR sort gate) (reported value) for this sequence: "QVQLVESGGGLDQAGGSLRLSCAASVSTFLVNTMGWYRQAPGKEREFVAAYADSVKGRFTISRDNAKNTVYLQMNSLKPEYTAVYYCNAGGSEIYRSPFDYWGQGTQVTVSS"
Outgoing: low polyreactivity

Incoming: Assign polyreactivity (PSR sort gate) to the following record: "QVQLVESGGGLVQAGGSLLLSCAASGSIFDFYGMGWDRQAPGKERELVATITGTGGGTYYADSVKGRFTISRDNAKNTVYLKMNSLKPEDTAVYYCAADYPYGYWRGLFYYWGQGTQVTVSS"
Outgoing: low polyreactivity

Incoming: # return recorded polyreactivity (PSR sort gate) for entry "QVQLVESGGGLVQAGGSLRLTCAASGRTFYVYAMGWYRQAPGKERELVAAITRSGDSTYADSVKGRFTISRDNAKNTVYLQMNSLKPEDTAVYYCSKRYTHYSFRRFDYWGQGTQVTVSS"
Outgoing: low polyreactivity

Incoming: Item "QVQLVESGGGLVQAGGSLRLSCAASGSTSRYAMGWYRQAPGKERELVAAITRSGGTTYYADSVKGRYTISRDNAKNTVYLQMNSLKPEDTAVYYCATSDRQVKYDYWGQGTQVTVSS" : provide polyreactivity (PSR sort gate)
Outgoing: low polyreactivity
